Values from paper PMC7024175

- target.entity: CAMKK2 (Homo sapiens, UniProt Q96RR4)
- Construct: made in house
- Sequence (Q96RR4 whole entry): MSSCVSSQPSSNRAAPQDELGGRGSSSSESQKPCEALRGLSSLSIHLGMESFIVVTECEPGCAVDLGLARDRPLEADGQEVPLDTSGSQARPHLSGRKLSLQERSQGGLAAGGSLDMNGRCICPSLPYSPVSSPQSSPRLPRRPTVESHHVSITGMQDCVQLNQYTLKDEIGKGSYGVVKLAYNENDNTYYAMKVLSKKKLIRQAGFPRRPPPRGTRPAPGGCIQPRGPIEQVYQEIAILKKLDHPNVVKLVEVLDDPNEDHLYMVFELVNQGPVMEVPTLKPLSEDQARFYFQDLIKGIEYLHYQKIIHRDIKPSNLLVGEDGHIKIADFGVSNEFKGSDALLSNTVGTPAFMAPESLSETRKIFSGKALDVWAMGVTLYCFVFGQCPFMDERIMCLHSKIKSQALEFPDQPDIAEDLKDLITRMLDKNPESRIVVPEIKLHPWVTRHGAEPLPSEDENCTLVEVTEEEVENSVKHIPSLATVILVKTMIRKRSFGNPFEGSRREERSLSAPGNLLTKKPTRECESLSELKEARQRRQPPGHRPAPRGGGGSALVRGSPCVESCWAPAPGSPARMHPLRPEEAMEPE
- method.description: CAMKK2 enzyme assay (radiometric, CaMKKtide)
- Type: biochemical
- recorded.conditions: 0.01 µM inhibitor; read-out: PoC (activity remaining)
measurement.name: remaining activity at 0.01 µM (%)

Sample records with remaining activity at 0.01 µM:
{"columns": ["compound", "remaining activity at 0.01 µM / %"],
 "data": [
  ["CC1(COc2ccc3c(c2)ncn3-c2ccc3cccc(N4CCC(N)CC4)c3n2)COC1 [Crenolanib]", 118],
  ["O=C(NCCCNc1nc(Nc2cccc(NC(=O)N3CCCC3)c2)ncc1I)c1cccs1 [BX795]", 97],
  ["CNC(=O)c1nn(C)c2c1C(C)(C)Cc1cnc(Nc3ccc(N4CCN(C)CC4)cc3)nc1-2 [Milciclib]", 107]
]}

P: COc1cc(N2CCC(N(C)C)CC2)ccc1Nc1ncc(Cl)c(Nc2ccccc2P(C)(C)=O)n1 [ALK-IN-1]
Q: CCN1CCN(c2ccc(Nc3cc(N(C)C(=O)Nc4c(Cl)c(OC)cc(OC)c4Cl)ncn3)cc2)CC1 [BGJ 398]
Select one. Lower remaining activity at 0.01 µM: P or Q The response must carry the label of the picked entry. P

----------
- target.entity: CAMKK2 (Homo sapiens, UniProt Q96RR4)
- Construct: made in house
- method.description: CAMKK2 enzyme assay (radiometric, CaMKKtide)
- Assay type: biochemical
- recorded.conditions: 0.01 µM inhibitor; read-out: PoC (activity remaining)
measurement.name: remaining activity at 0.01 µM (%)

{"columns": ["molecule", "result.unit", "recorded.number"],
 "data": [
  ["Cc1nc(Nc2[nH]nc3c2CN(C(=O)N[C@H](CN(C)C)c2ccccc2)C3(C)C)c2sccc2n1 [PF3758309]", "%", 95],
  ["CC(C)[C@H](CO)Nc1nc(Nc2cc(N)cc(Cl)c2)c2ncn(C(C)C)c2n1 [Aminopurvalanol]", "%", 100],
  ["CC(=O)c1cnc2ccc(-c3cc(Cl)c(O)c(Cl)c3)nc2c1N[C@H]1CC[C@H](CN(C)C)CC1 [OTSSP167]", "%", 84],
  ["Cc1c[nH]c(-c2cnc(NCCNc3ccc(C#N)cn3)nc2-c2ccc(Cl)cc2Cl)n1 [CHIR99021]", "%", 98],
  ["C=CCn1c(=O)c2cnc(Nc3ccc(N4CCN(C)CC4)cc3)nc2n1-c1cccc(C(C)(C)O)n1 [MK1775]", "%", 101],
  ["CC[C@@H]1C(=O)N(C)c2cnc(Nc3ccc(C(=O)N[C@H]4CC[C@H](N5CCN(CC6CC6)CC5)CC4)cc3OC)nc2N1C(C)C [BI6727]", "%", 104],
  ["c1cc(-c2cnn3cc(-c4ccc(OCCN5CCCCC5)cc4)cnc23)ccn1 [Dorsomorphin]", "%", 100],
  ["Cn1c2ccccc2c2c3c(c4c5ccccc5n(CCC#N)c4c21)CNC3=O [Go6976]", "%", 97]
]}

----------
- target.entity: CAMKK2 (Homo sapiens)
- Construct: made in house
- method.description: CAMKK2 enzyme assay (radiometric, CaMKKtide)
- Assay type: biochemical
- recorded.conditions: 8-point full dose response; read-out: IC50
measurement.name: IC50 (nM)

Reference set (3 entries):
{"columns": ["query.smiles", "IC50 (nM)"],
 "data": [
  ["CC(=O)c1cnc2ccc(-c3cc(Cl)c(O)c(Cl)c3)nc2c1N[C@H]1CC[C@H](CN(C)C)CC1", 86],
  ["c1ccc2c(-c3cnn4cc(-c5ccc(N6CCNCC6)cc5)cnc34)ccnc2c1", 146],
  ["CC(=O)NCC(=O)N1[C@@H]2CC[C@H]1c1ccc(Nc3ncc(C(F)(F)F)c(NC4CCC4)n3)cc12", 227]
]}

I: CCc1nc(C(N)=O)c(Nc2ccc(N3CCC(N4CCN(C)CC4)CC3)c(OC)c2)nc1NC1CCOCC1
II: COc1cc(N2CCC(N(C)C)CC2)ccc1Nc1ncc(Cl)c(Nc2ccccc2P(C)(C)=O)n1
III: COCCOc1ccc2c(c1)ncn2-c1ccc2cccc(N3CCC(N)CC3)c2n1
Arrange the 3 compounds from largest to smallest IC50. Ranked list of labels, please, in the requested order. I, III, II
(I: 204 nM, III: 73 nM, II: 28 nM)
